Data credit: the kinase profiling compilation of Christmann-Franck et al. (2016)

target.under.test: PIM1 (human)
experiment.summary: radiometric filter-binding kinase assay
conditions.used: compound 0.1 µM
observed.property: residual activity (%)

compound: NC(=O)c1cc(-c2ccnc(NC3CCCCC3)c2)nc(N2CCNCC2)c1
observed.property: residual activity
units.of.measure: %
endpoint.value: 114
//
compound: O=C(Nc1nc2cc(C(F)(F)F)cc(NC3CC3)n2n1)c1cccnc1
observed.property: residual activity
units.of.measure: %
endpoint.value: 96
//
compound: COc1cc(O)c2c(c1)/C=C/C[C@H](O)[C@H](O)C(=O)/C=C\C[C@H](C)OC2=O
observed.property: residual activity
units.of.measure: %
endpoint.value: 102
//
compound: c1ccc2c(-c3cnn4cc(-c5ccc(N6CCNCC6)cc5)cnc34)ccnc2c1
observed.property: residual activity
units.of.measure: %
endpoint.value: 83
//
compound: COc1ccc(N(C(=O)Nc2c(C)cccc2C)c2cc(Nc3ccc(N4CCN(C)CC4)cc3)ncn2)c(OC)c1
observed.property: residual activity
units.of.measure: %
endpoint.value: 113
//
compound: O=C(Nc1ccccc1-c1cn2c(CN3CCNCC3)csc2n1)c1cnc2ccccc2n1
observed.property: residual activity
units.of.measure: %
endpoint.value: 40
//
compound: Cc1cc(NC(=O)c2cccc(NC(=O)/C=C/CN(C)C)c2)ccc1Nc1nccc(-c2cccnc2)n1
observed.property: residual activity
units.of.measure: %
endpoint.value: 104
//
compound: CCCCCc1ccc(/C=C/[C@H](O)[C@@H](CO)NC)cc1
observed.property: residual activity
units.of.measure: %
endpoint.value: 100
//
compound: CNC(=O)C1[C@H]2O[C@@](C)([C@@H]1N)n1c3ccccc3c3c4c(c5c6ccccc6n2c5c31)C(=O)NC4 (some centres undefined)
observed.property: residual activity
units.of.measure: %
endpoint.value: 16
//
compound: CC1=C(CO)C(=O)O[C@@H]([C@@H](C)[C@H]2CC[C@H]3[C@@H]4C[C@H]5O[C@]56[C@@H](O)C=CC(=O)[C@]6(C)C4CC[C@]23C)C1 (some centres undefined)
observed.property: residual activity
units.of.measure: %
endpoint.value: 109
//
compound: NC(=O)Nc1ccc2c(c1)/C(=C/c1cc(-c3cccnc3)c[nH]1)C(=O)N2
observed.property: residual activity
units.of.measure: %
endpoint.value: 43
//
compound: C/C(=C1/C(=O)Nc2ccc(NC(N)=O)cc21)c1ccc[nH]1
observed.property: residual activity
units.of.measure: %
endpoint.value: 69
//
compound: COc1ccc2c(c1)c1c3c(c4c5ccccc5n(C)c4c1n2CC(O)CN(C)C)C(=O)NC3=O (centres undefined)
observed.property: residual activity
units.of.measure: %
endpoint.value: 9
//
compound: CN(C)C/C=C/C(=O)Nc1cccc(C(=O)Nc2ccc(Nc3nccc(-c4cccnc4)n3)cc2)c1
observed.property: residual activity
units.of.measure: %
endpoint.value: 97
//
compound: NC(=O)c1cc2c(-c3cccc(-c4ccccc4)c3)cnc(N)c2s1
observed.property: residual activity
units.of.measure: %
endpoint.value: 112
//
compound: O=C(O)c1ccc(-c2c[nH]c3ncc(-c4ccccc4)cc23)cc1C1CCCC1
observed.property: residual activity
units.of.measure: %
endpoint.value: 91
//
compound: COc1ccc(-n2ncc3cnc(Nc4cc(OC)c(OC)c(OCCCN5CCN(C)CC5)c4)nc32)cc1
observed.property: residual activity
units.of.measure: %
endpoint.value: 96
//
compound: COc1cc(O)c2c(c1)[C@H]1OC1C[C@H](O)[C@H](O)C(=O)/C=C\C[C@H](C)OC2=O (some centres undefined)
observed.property: residual activity
units.of.measure: %
endpoint.value: 87
//
compound: Cn1c(=O)c2c(ncn2C)n(C)c1=O
observed.property: residual activity
units.of.measure: %
endpoint.value: 90
